test: Pharmacokinetics of CCI-779 in patients with cancer following intravenous administration; conditions: human, whole blood
REPORTED_ENDPOINT: half-life

{"ENTRY_SMILES": "CO[C@H]1C[C@@H]2CC[C@@H](C)[C@@](O)(O2)C(=O)C(=O)N2CCCC[C@H]2C(=O)O[C@H]([C@H](C)C[C@@H]2CC[C@@H](OC(=O)C(C)(CO)CO)[C@H](OC)C2)CC(=O)[C@H](C)/C=C(\\C)[C@@H](O)[C@@H](OC)C(=O)[C@H](C)C[C@H](C)/C=C/C=C/C=C/1C", "MEASURED_VALUE": "~14 h"}

====

assay: clinical; settings: human, in vivo, iv

{"ENTRY_SMILES": "CO[C@H]1C[C@@H]2CC[C@@H](C)[C@@](O)(O2)C(=O)C(=O)N2CCCC[C@H]2C(=O)O[C@H]([C@H](C)C[C@@H]2CC[C@@H](O)[C@H](OC)C2)CC(=O)[C@H](C)/C=C(\\C)[C@@H](O)[C@@H](OC)C(=O)[C@H](C)C[C@H](C)/C=C/C=C/C=C/1C", "half-life": "60 to 70 h"}

====

experiment: clinical; conditions: human, in vivo
REPORTED_ENDPOINT: clearance (mL/min)

{"ENTRY_SMILES": "CO[C@H]1C[C@@H]2CC[C@@H](C)[C@@](O)(O2)C(=O)C(=O)N2CCCC[C@H]2C(=O)O[C@H]([C@H](C)C[C@@H]2CC[C@@H](O)[C@H](OC)C2)CC(=O)[C@H](C)/C=C(\\C)[C@@H](O)[C@@H](OC)C(=O)[C@H](C)C[C@H](C)/C=C/C=C/C=C/1C", "UNIT_TAG": "mL/min", "MEASURED_VALUE": 33.2}

====

test: Pharmacokinetics of CCI-779 in patients with cancer following intravenous administration; details: human, whole blood, 250 mg

{"ENTRY_SMILES": "CO[C@H]1C[C@@H]2CC[C@@H](C)[C@@](O)(O2)C(=O)C(=O)N2CCCC[C@H]2C(=O)O[C@H]([C@H](C)C[C@@H]2CC[C@@H](OC(=O)C(C)(CO)CO)[C@H](OC)C2)CC(=O)[C@H](C)/C=C(\\C)[C@@H](O)[C@@H](OC)C(=O)[C@H](C)C[C@H](C)/C=C/C=C/C=C/1C", "clearance": "~1670 mL/min"}

====

test: clinical; settings: human, whole blood, iv
REPORTED_ENDPOINT: clearance (mL/min)

{"ENTRY_SMILES": "CO[C@H]1C[C@@H]2CC[C@@H](C)[C@@](O)(O2)C(=O)C(=O)N2CCCC[C@H]2C(=O)O[C@H]([C@H](C)C[C@@H]2CC[C@@H](OC(=O)C(C)(CO)CO)[C@H](OC)C2)CC(=O)[C@H](C)/C=C(\\C)[C@@H](O)[C@@H](OC)C(=O)[C@H](C)C[C@H](C)/C=C/C=C/C=C/1C", "REPORTED_ENDPOINT": "clearance", "MEASURED_VALUE": 23.2}

Each recorded value in this set is attributed to patent US7643943B2.
